- experimental_system: human P2X3 receptor (Homo sapiens (Human))
- Sequence (P56373 whole entry): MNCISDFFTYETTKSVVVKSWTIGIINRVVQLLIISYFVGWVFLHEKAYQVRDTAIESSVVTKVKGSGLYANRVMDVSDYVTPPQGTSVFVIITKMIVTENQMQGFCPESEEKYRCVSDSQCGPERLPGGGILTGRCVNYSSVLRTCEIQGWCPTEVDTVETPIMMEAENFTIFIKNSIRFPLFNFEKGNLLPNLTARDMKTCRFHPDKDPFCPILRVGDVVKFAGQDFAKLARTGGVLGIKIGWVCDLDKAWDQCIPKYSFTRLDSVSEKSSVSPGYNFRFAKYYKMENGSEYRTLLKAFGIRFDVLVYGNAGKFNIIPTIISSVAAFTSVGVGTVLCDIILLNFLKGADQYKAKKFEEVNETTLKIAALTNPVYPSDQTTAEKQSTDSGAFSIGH
- assay_method_text: Evaluation of human P2X3 receptor inhibitory activity (Fluo-3 calcium fluorescence, FDSS 3000, ATP stimulation)
- Format: cell-based
- run_conditions: human P2X3 receptor, Test Example 1
// classify: if (IC50 < 20 nM) 1 else 0

// known answers, use as guide
CC1(Cn2c(=O)[nH]/c(=N\c3ccc(OCC4CC4)cc3)n(Cc3ccc(Cl)cc3)c2=O)COC(C)(C)OC1
1
Cc1ccc(Cn2c(=O)n(C)c(=O)[nH]/c2=N\c2ccc(Oc3cc(C(=O)O)ccn3)cc2)cc1
1
CCn1c(=O)[nH]/c(=N\c2ccc3nc(Cl)sc3c2)n(Cc2ccc(Cl)cc2)c1=O
1

Lab note: IC50 threshold 20 nM. Does this compound come in strictly under it? Cc1ccc(Cn2c(=O)n(C)c(=O)[nH]/c2=N\c2ccc(Oc3ccc(C(=O)O)nn3)cc2)cc1
0

IC50 under 20 nM? Item: Cc1ccc(Cn2c(=O)n(C)c(=O)[nH]/c2=N\c2ccc(Oc3cncc(C(=O)O)n3)cc2)cc1
1

Consider the compound CCn1c(=O)[nH]/c(=N\c2ccc(Oc3cccc(C#N)n3)c(OC)c2)n(Cc2ccc(Cl)cc2)c1=O . Is its IC50 strictly less than 20 nM?
1

Decide: IC50 of O=c1[nH]/c(=N\c2ccc(Oc3ncccn3)cc2)n(Cc2ccc(Cl)cc2)c(=O)n1CC(CO)CO strictly below 20 nM?
1

Strictly below 20 nM: is that where IC50 of NC(=O)CCn1c(=O)[nH]/c(=N\c2ccc(Oc3ncccn3)cc2)n(Cc2ccc(Cl)cc2)c1=O sits?
1

====

- experimental_system: human P2X3 receptor (Homo sapiens (Human))
- assay_method_text: Evaluation of human P2X3 receptor inhibitory activity (Fluo-3 calcium fluorescence, FDSS 3000, ATP stimulation)
- Type: cell-based
- run_conditions: C6BU-1 cells stably expressing human P2X3 receptor
pIC50: −log10 of the molar value.
Label Criterion met for high-side pIC50 (at or above 8) and Criterion not met for low-side pIC50 (below it).

CCOC(=O)CCCn1c(=O)[nH]/c(=N\c2ccc(Oc3ccc(C)nc3)cc2)n(Cc2ccc(C)cc2)c1=O [Compound I-1369]
Criterion met
COC(=O)[C@@H](C)Cn1c(=O)[nH]/c(=N\c2ccc(OC(C)C)c(Cl)c2)n(Cc2ccccc2)c1=O [Compound I-0763]
Criterion not met
Cc1ccc(Cn2c(=O)n(CC(C)(C)C(=O)O)c(=O)[nH]/c2=N\c2ccc(OCC3CC3)cc2)cc1 [Compound I-1268]
Criterion not met
Cc1cc(/N=c2\[nH]c(=O)n(C[C@H](C)C(=O)O)c(=O)n2Cc2ccc(Cl)cc2)ccc1OCC(F)F [Compound I-0741]
Criterion not met
CCn1c(=O)[nH]/c(=N\c2ccc(Oc3ccnc(O)n3)cc2)n(Cc2ccc(Cl)cc2)c1=O [Compound I-2016]
Criterion met

Textbook exercise: given the entry Cc1ccc(Cn2c(=O)n(C[C@H](C)C(=O)O)c(=O)[nH]/c2=N\c2ccc(C(=O)C3CC3)cc2)cc1 [Compound I-1305] , state whether its pIC50 is greater than or equal to 8.
Criterion not met

====

- experimental_system: UniProt:P56373
- assay_method_text: Evaluation of human P2X3 receptor inhibitory activity (Fluo-3 calcium fluorescence, FDSS 3000, ATP stimulation);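 note: stimulus was 50 nM ATP with fluorescence followed for 3 min, and the response per well was peak post-ATP fluorescence divided by the reading at measurement start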
- Format: cell-based
- run_conditions: human P2X3 receptor, Test Example 1
Listed compounds paired with reported IC50
Kindly answer with a numeric value in nM, unit omitted.

Cn1c(=O)[nH]/c(=N\c2ccc(Oc3cc(C#N)ccn3)cc2)n(Cc2ccc(Cl)cc2)c1=O
10
O=c1[nH]/c(=N\c2ccc(Oc3cnsn3)cc2)n(Cc2ccc(Cl)cc2)c(=O)n1CCO
15
CNC(=O)[C@H](C)n1c(=O)[nH]/c(=N\c2ccc(Oc3ccon3)cc2)n(Cc2ccc(Cl)cc2)c1=O
44
O=c1[nH]/c(=N\c2ccc(Oc3cccc(F)n3)cc2)n(Cc2ccc(Cl)cc2)c(=O)n1C[C@H](O)CO
4

Quick one: IC50 for COC(=O)[C@@H](C)Cn1c(=O)[nH]/c(=N\c2ccc(CC(C)(C)O)c(Cl)c2)n(Cc2ccc(C)cc2)c1=O ?
5
